Test: Pharmacokinetics of NA and NUA in plasma after single oral doses of Niacin extended-release/Simvastatin tablets in healthy Chinese volunteers
Assay type: in vivo
Settings: both sexes, human, in vivo, po, 3 tablets (1500 mg/30 mg), mean ± S.D., n = 12
measured.quantity: AUC(0-inf) (ng·h/mL)
Numbers only, in ng·h/mL.

Lab note: measured AUC(0-inf) of O=C(O)CNC(=O)c1cccnc1 was 10200

---

Test: Pharmacokinetics of NA and NUA in plasma after single oral doses of Niacin extended-release/Simvastatin tablets in healthy Chinese volunteers
Assay type: in vivo
Conditions: both sexes, human, plasma, po, 3 tablets (1500 mg/30 mg), mean ± S.D., n = 12, read-out: V z/F
measured.quantity: Vd/F (L)
Give bare numbers, in L.

Lab note: measured Vd/F of O=C(O)c1cccnc1 was 5200

---

Experiment: Pharmacokinetics of NA and NUA in plasma after single oral doses of Niacin extended-release/Simvastatin tablets in healthy Chinese volunteers
Type: in vivo
Settings: both sexes, human, plasma, po, 2 tablets (1000 mg/20 mg), mean ± S.D., n = 12
Description: Extraction of NA and NUA was carried out by protein precipitation. First, 50 μL of the IS working solution (1000 ng/mL 5-FU) and 50 μL of water were added to a 100 μL aliquot of human plasma. […] The pharmacokinetic parameters were calculated with data analysis system (DAS) program (version 2.0, Mathematical Pharmacology Professional Committee, Shanghai, China). […] The area under the curve from time zero to the last sampling time (AUC0−t) was determined using the linear trapezoidal rule.
measured.quantity: AUC(0-inf) (ng·h/mL)
Answers are plain numbers, in ng·h/mL.

Lab note: measured AUC(0-inf) of O=C(O)c1cccnc1 [NA, 3-pyridine-carboxylic acid] was 1720

---

Assay: Pharmacokinetics of NA and NUA in plasma after single oral doses of Niacin extended-release/Simvastatin tablets in healthy Chinese volunteers
Assay type: in vivo
Settings: both sexes, human, plasma, po, 3 tablets, read-out: C max
measured.quantity: Cmax
Answers without a unit are incomplete; give the number and then its unit.

Lab note: measured Cmax of O=C(O)c1cccnc1 was 2480 ng/mL

---

Test: Pharmacokinetics of NA and NUA in plasma after single oral doses of Niacin extended-release/Simvastatin tablets in healthy Chinese volunteers
Assay type: in vivo
Conditions: both sexes, human, in vivo, po, 1 tablet (500 mg/10 mg), mean ± S.D., n = 12, read-out: MRT0–t
measured.quantity: MRT last (h)
One number for each entry, in h.

Lab note: measured MRT last of O=C(O)CNC(=O)c1cccnc1 was 2.91

---

Assay: Pharmacokinetics of NA and NUA in plasma after single oral doses of Niacin extended-release/Simvastatin tablets in healthy Chinese volunteers
Assay type: in vivo
Settings: both sexes, human, in vivo, po, 3 tablets (1500 mg/30 mg), mean ± S.D., n = 12, read-out: C max
measured.quantity: Cmax (ng/mL)
One number for each entry, in ng/mL.

Lab note: measured Cmax of O=C(O)CNC(=O)c1cccnc1 was 2790

---

Assay: Pharmacokinetics of NA and NUA in plasma after single oral doses of Niacin extended-release/Simvastatin tablets in healthy Chinese volunteers
Type: in vivo
Conditions: both sexes, human, in vivo, po, 1 tablet (500 mg/10 mg), mean ± S.D., n = 12
Method: Extraction of NA and NUA was carried out by protein precipitation. First, 50 μL of the IS working solution (1000 ng/mL 5-FU) and 50 μL of water were added to a 100 μL aliquot of human plasma. […] The pharmacokinetic parameters were calculated with data analysis system (DAS) program (version 2.0, Mathematical Pharmacology Professional Committee, Shanghai, China). […] The area under the curve from time zero to the last sampling time (AUC0−t) was determined using the linear trapezoidal rule.
measured.quantity: half-life (h)
One number for each entry, in h.

Lab note: measured half-life of O=C(O)CNC(=O)c1cccnc1 [NUA, nicotinuric acid] was 1.7

---

Assay: Pharmacokinetics of NA and NUA in plasma after single oral doses of Niacin extended-release/Simvastatin tablets in healthy Chinese volunteers
Assay type: in vivo
Conditions: both sexes, human, plasma, po, 3 tablets (1500 mg/30 mg), mean ± S.D., n = 12, read-out: C max
measured.quantity: Cmax (ng/mL)
Numbers only, in ng/mL.

Lab note: measured Cmax of O=C(O)c1cccnc1 [NA, 3-pyridine-carboxylic acid] was 2480

---

Assay: Pharmacokinetics of NA and NUA in plasma after single oral doses of Niacin extended-release/Simvastatin tablets in healthy Chinese volunteers
Assay type: in vivo
Details: both sexes, human, in vivo, po, 2 tablets
measured.quantity: AUC(0-t) (ng·h/mL)
Answers are plain numbers, in ng·h/mL.

Lab note: measured AUC(0-t) of O=C(O)CNC(=O)c1cccnc1 was 5400

---

Experiment: Pharmacokinetics of NA and NUA in plasma after single oral doses of Niacin extended-release/Simvastatin tablets in healthy Chinese volunteers
Format: in vivo
Details: both sexes, human, plasma, po, 3 tablets (1500 mg/30 mg), mean ± S.D., n = 12
measured.quantity: half-life (h)
Give bare numbers, in h.

Lab note: measured half-life of O=C(O)c1cccnc1 [NA, 3-pyridine-carboxylic acid] was 5.4

---

Test: Pharmacokinetics of NA and NUA in plasma after single oral doses of Niacin extended-release/Simvastatin tablets in healthy Chinese volunteers
Assay type: in vivo
Conditions: both sexes, human, plasma, po, 2 tablets (1000 mg/20 mg), mean ± S.D., n = 12
measured.quantity: AUC(0-t) (ng·h/mL)
Answers are plain numbers, in ng·h/mL.

Lab note: measured AUC(0-t) of O=C(O)c1cccnc1 [NA, 3-pyridine-carboxylic acid] was 1540

---

Experiment: Pharmacokinetics of NA and NUA in plasma after single oral doses of Niacin extended-release/Simvastatin tablets in healthy Chinese volunteers
Assay type: in vivo
Details: both sexes, human, plasma, po, 3 tablets (1500 mg/30 mg), mean ± S.D., n = 12
Protocol: Extraction of NA and NUA was carried out by protein precipitation. First, 50 μL of the IS working solution (1000 ng/mL 5-FU) and 50 μL of water were added to a 100 μL aliquot of human plasma. […] The pharmacokinetic parameters were calculated with data analysis system (DAS) program (version 2.0, Mathematical Pharmacology Professional Committee, Shanghai, China). […] The area under the curve from time zero to the last sampling time (AUC0−t) was determined using the linear trapezoidal rule.
measured.quantity: AUC(0-t) (ng·h/mL)
Answers are plain numbers, in ng·h/mL.

Lab note: measured AUC(0-t) of O=C(O)c1cccnc1 was 6020

---

Assay: Pharmacokinetics of NA and NUA in plasma after single oral doses of Niacin extended-release/Simvastatin tablets in healthy Chinese volunteers
Assay type: in vivo
Conditions: both sexes, human, in vivo, po, 2 tablets (1000 mg/20 mg), mean ± S.D., n = 12
measured.quantity: AUC(0-t) (ng·h/mL)
Give bare numbers, in ng·h/mL.

Lab note: measured AUC(0-t) of O=C(O)CNC(=O)c1cccnc1 was 5400

---

Experiment: Pharmacokinetics of NA and NUA in plasma after single oral doses of Niacin extended-release/Simvastatin tablets in healthy Chinese volunteers
Type: in vivo
Details: both sexes, human, plasma, po, 2 tablets (1000 mg/20 mg), mean ± S.D., n = 12, read-out: MRT0–t
measured.quantity: MRT last (h)
One number for each entry, in h.

Lab note: measured MRT last of O=C(O)c1cccnc1 was 4.4

---

Experiment: Pharmacokinetics of NA and NUA in plasma after single oral doses of Niacin extended-release/Simvastatin tablets in healthy Chinese volunteers
Assay type: in vivo
Conditions: both sexes, human, plasma, po, 2 tablets, read-out: C max
Method: Extraction of NA and NUA was carried out by protein precipitation. First, 50 μL of the IS working solution (1000 ng/mL 5-FU) and 50 μL of water were added to a 100 μL aliquot of human plasma. […] The pharmacokinetic parameters were calculated with data analysis system (DAS) program (version 2.0, Mathematical Pharmacology Professional Committee, Shanghai, China). […] The area under the curve from time zero to the last sampling time (AUC0−t) was determined using the linear trapezoidal rule.
measured.quantity: Cmax (ng/mL)
Give bare numbers, in ng/mL.

Lab note: measured Cmax of O=C(O)c1cccnc1 [NA, 3-pyridine-carboxylic acid] was 904

---

Test: Pharmacokinetics of NA and NUA in plasma after single oral doses of Niacin extended-release/Simvastatin tablets in healthy Chinese volunteers
Assay type: in vivo
Conditions: both sexes, human, in vivo, po, 2 tablets, read-out: C max
measured.quantity: Cmax (ng/mL)
Numbers only, in ng/mL.

Lab note: measured Cmax of O=C(O)CNC(=O)c1cccnc1 [NUA, nicotinuric acid] was 1630

---

Assay: Pharmacokinetics of NA and NUA in plasma after single oral doses of Niacin extended-release/Simvastatin tablets in healthy Chinese volunteers
Format: in vivo
Details: both sexes, human, in vivo, po, 3 tablets, read-out: C max
measured.quantity: Cmax (ng/mL)
Give bare numbers, in ng/mL.

Lab note: measured Cmax of O=C(O)CNC(=O)c1cccnc1 was 2790

---

Test: Pharmacokinetics of NA and NUA in plasma after single oral doses of Niacin extended-release/Simvastatin tablets in healthy Chinese volunteers
Assay type: in vivo
Conditions: both sexes, human, in vivo, po, 3 tablets (1500 mg/30 mg), mean ± S.D., n = 12, read-out: V z/F
Description: Extraction of NA and NUA was carried out by protein precipitation. First, 50 μL of the IS working solution (1000 ng/mL 5-FU) and 50 μL of water were added to a 100 μL aliquot of human plasma. […] The pharmacokinetic parameters were calculated with data analysis system (DAS) program (version 2.0, Mathematical Pharmacology Professional Committee, Shanghai, China). […] The area under the curve from time zero to the last sampling time (AUC0−t) was determined using the linear trapezoidal rule.
measured.quantity: Vd/F (L)
One number for each entry, in L.

Lab note: measured Vd/F of O=C(O)CNC(=O)c1cccnc1 [NUA, nicotinuric acid] was 696
